System: HT29 colon
Experiment: NCI-60 one-dose screen, 48 h
Conditions: 10 µM unless noted
Compounds without any hit were thinned out: in the full panel of roughly 83,000, 20% have a hit. Calls of active or inactive are those of the source. How the source made its calls: active means growth percent below 10; inactive means the rest.
Labels: YES for active, NO for inactive

| Compound String | Group |
| --- | --- |
| CCOP(=O)(OCC)C(=O)N(CC)CC | NO |
| Cc1cc[c-]cc1.Fc1c[c-]c(-c2ccccn2)c(F)c1.[Pt+2].c1ccc([PH+](c2ccccc2)c2ccccn2)cc1 | NO |
| O=[N+]([O-])c1ccc(P(=O)(O)O)cc1 | NO |
| O=[N+]([O-])c1cc(Br)c(O)c(Br)c1 | NO |
| N#CC(NC(=O)CCl)=C(Cl)Cl | YES |
| O=C(O)C(F)F | NO |
| C[C@]12CC[C@@H](OC(=O)N(CCCl)N=O)C[C@@H]1CC[C@@H]1[C@@H]2CC[C@]2(C)C(=O)CC[C@@H]12 | NO |
| CC[C@H](C)[C@H](NC(=O)C12CC(NC)(C1)C2)C(=O)N(C)[C@H](C[C@@H](OC(C)=O)c1nc(C(=O)N[C@@H](Cc2ccccc2)C[C@H](C)C(=O)OC)cs1)C(C)C | YES |
| C=C[Se]CC(=O)/C=C/c1ccccc1 | NO |
| O=c1c2ccccc2nc(-c2ccccc2Cl)n1-c1nnc(C(F)(F)F)s1 | NO |
| C[Se]/C=C1/C(=O)N(c2c(Cl)cccc2Cl)c2ccccc21 | YES |

###

Test system: ACHN renal
Assay: NCI-60 one-dose screen, 48 h (100 = growth as untreated, 0 = no growth, -100 = all killed)
Conditions: 10 µM unless noted
The panel holds about 83,000 compounds, 20% with a hit somewhere; the sample as a whole holds those more often.

| Compound String | Measurement Units | growth |
| --- | --- | --- |
| O=C/C=C/c1ccco1 | % | 109 |
| C[C@]12CCC(=O)C[C@@H]1CC[C@@H]1[C@@H]2CC[C@]2(C)[C@@H](OC(=O)N(CCCl)N=O)CC[C@@H]12 | % | 9.18 |
| Nc1cccnc1 | % | 113 |
| O=[N+]([O-])c1ccc(CI)cc1 | % | 65.5 |
| CCC(Br)(CC)C(=O)NC(N)=O | % | 109 |
| Cc1cc(N(CCCl)CCCl)ccc1C=Nc1ccc(-c2csc(-c3ccccc3)n2)cc1 | % | 80.5 |
| C[C@]12CCc3sc(Nc4ccc(F)cc4F)nc3C1=CC[C@@H]1[C@@H]2CC[C@]2(C)C(=O)CC[C@@H]12 | % | 37.7 |

###

growth for assorted molecules
Test system: MALME-3M melanoma
Assay: NCI-60 one-dose screen, 48 h (100 = growth as untreated, 0 = no growth, -100 = all killed)
Settings: 10 µM unless noted
This is part of a sample that, as a whole, favours compounds with a hit. Of some 83,000 tested, about 20% had one in any assay. Calls of active or inactive are those of the source. How the source made its calls: active means growth percent below 10; inactive means the rest.

| Molecule | growth |
| --- | --- |
| O=C1NC(=O)C(=C/C=C/c2ccccc2)C(=O)N1 | -4.86% (active) |
| CC[C@H](C)[C@H](NC(=O)CN(C)C)C(=O)N(C)[C@H](C[C@@H](OC(C)=O)c1nc(C(=O)NC23C4C5C2C2C3C4C52C(=O)OC)cs1)C(C)C (stereo partly specified) | 35.1% (inactive) |
| C=CC[PH+](c1ccccc1)c1ccccc1.C=CC[PH+](c1ccccc1)c1ccccc1.[Pt+2].[S-]c1nc2ccccc2[nH]1.[S-]c1nc2ccccc2[nH]1 | -72.8% (active) |
| ClCc1ccc(Cl)c(Cl)c1 | 83% (inactive) |
| C/C(=C(\c1ccc(OCCN2CCOCC2)cc1)c1ccc(OC(=O)Cc2ccccc2)cc1)c1ccc(Cl)cc1 | 104% (inactive) |
| C[N+]1(CC#CC[N+]2(C)CCCC2)CCCC1 | 99% (inactive) |
| CC/C(=C(\c1ccc(OCCN2CCOCC2)cc1)c1ccc(OC(=O)Cc2ccccc2)cc1)c1ccc(Cl)cc1 | 95.1% (inactive) |
| C[Se]/C=C1/C(=O)N(c2c(Cl)cccc2Cl)c2ccccc21 | 37.4% (inactive) |
| O=S(=O)(c1ccc(O)cc1)c1ccccc1O | 113% (inactive) |
| N#CCC(=O)c1ccccc1 | 102% (inactive) |
| C#COc1cccc(Nc2ncnc3cc(NC(=O)CF)ccc23)c1 | 60.9% [6.25 µM] (inactive) |
| Cc1cc2c(cc1-c1ccnc(/C=C/C(=O)O)c1)C(C)(C)CCC2(C)C | 64.8% (inactive) |
| C[C@]12CC[C@H](O)C[C@@H]1CC[C@@H]1[C@@H]2CC[C@]2(C)OC(=O)CC[C@@H]12 | 82.7% (inactive) |
| O=C(O)c1ccccc1N(CCO)CCCl | 87.1% (inactive) |
| Cc1c2ccncc2c(C)c2c1[nH]c1ccccc12 | -77.8% (active) |
| CC1(C)S[C@H]2CC[C@H]3OC(=O)[C@@H]1N23 | 101% (inactive) |
| CC(=O)C(N)Cc1ccccc1 (stereo unspecified) | 105% (inactive) |
| c1ccc2c(c1)O[As](O[As]1Oc3ccccc3O1)O2 | -7.18% (active) |
| C[C@@]12CCCc3coc(c31)C(=O)c1cc3c(cc12)C(=O)C1=C(NCCS1(=O)=O)C3=O | -98.2% (active) |
| Cc1cc(N(CCCl)CCCl)ccc1C=Nc1ccc(-c2csc(-c3ccccc3)n2)cc1 | 115% (inactive) |
| Cc1nnc([S-])o1.[Au+].c1ccc([PH+](c2ccccc2)c2ccccc2)cc1 | 48.1% (inactive) |

###

Test system: SK-MEL-28 melanoma
Assay: NCI-60 one-dose screen, 48 h
Conditions: 10 µM unless noted
The panel holds about 83,000 compounds, 20% with a hit somewhere; the sample as a whole holds those more often. Calls of active or inactive are those of the source. How the source made its calls: active means growth percent below 10; inactive means the rest.
Labels: TRUE = active, FALSE = inactive

| Compound | Group |
| --- | --- |
| Cc1cc(NC(=O)NCCCOc2ccc(N3C(N)=NC(N)=NC3(C)C)cc2Cl)ccc1S(=O)(=O)F | FALSE |
| C[C@]12CCc3sc(Nc4ccc(O)cc4)nc3C1=CC[C@@H]1[C@@H]2CC[C@]2(C)C(=O)CC[C@@H]12 | FALSE |
| COc1ccc(N(CC(=O)NCCC[Te]c2ccccc2)C(=O)c2ccccc2)cc1 | FALSE |
| NC(N)=NC(N)=Nc1ccc(Cl)cc1 | FALSE |
| COc1ccc(N)cc1OC | FALSE |
| Nc1ccc2c(c1)Cc1cc(N)ccc1-2 | FALSE |
| COC12CC3(C)C(C4=CC(=O)OC4)CCC3(O)C3CCC4=CC(=O)CCC4(CO1)C32 (stereo unspecified) | FALSE |
| O=[N+]([O-])c1ccc2scc3c4ccccc4nc-3c2c1 | TRUE |
| CCCC(C)SP(=S)(SC(C)CCC)SC(C)CCC (stereo unspecified) | FALSE |
| C[Se]/C=C1/C(=O)N(c2c(Cl)cccc2Cl)c2ccccc21 | TRUE |
| CC1=C([Te]c2ccccc2)C(=O)c2ccccc2C1=O | TRUE |
| CSc1cc(/C=C(\C)[C@@H]2C[C@@H]3O[C@]3(C)CCC[C@H](C)[C@H](O)[C@@H](C)C(=O)C(C)(C)[C@@H](O)CC(=O)O2)n(CCNC(=O)OC(C)(C)C)n1 | FALSE |
| Oc1ccccc1C=NCCN=Cc1ccccc1O.[Fe] | FALSE |
| O=C1c2ccccc2C(=O)N1N1CC1c1ccccc1 (stereo unspecified) | FALSE |
| CC[C@H](C)[C@H](NC(=O)c1ncccn1)C(=O)N(C)[C@H](C[C@@H](OC(C)=O)c1nc(C(=O)N[C@@H](Cc2ccccc2)C[C@H](C)C(=O)OC)cs1)C(C)C | FALSE |
| CN1CCC2(CC1)C(C#N)C(=O)NC(=O)C2C#N (stereo unspecified) | FALSE |
| Nc1nc(=S)nc(N)[nH]1 | FALSE |
| CC12CCC3C(CCC4CC(O)CCC43C)C1CCC2=O (stereo unspecified) | FALSE |
| O=C(O)CCCc1ccc(N(CCCl)CCCl)cc1 | FALSE |
| COC(=O)CCP(CCC(=O)OC)c1ccccc1 | FALSE |
| Cc1cc[c-]cc1.Fc1c[c-]c(-c2ccccn2)c(F)c1.[Pt+2].c1ccc([PH+](c2ccccc2)c2ccccn2)cc1 | FALSE |

###

Tested on: MDA-MB-435 melanoma
Assay: NCI-60 one-dose screen, 48 h
Conditions: 10 µM unless noted
Compounds without any hit were thinned out: in the full panel of roughly 83,000, 20% have a hit. Calls of active or inactive are those of the source. How the source made its calls: active means growth percent below 10; inactive means the rest.
Labels: active, inactive

| Compound | Group |
| --- | --- |
| CC[C@H](C)[C@H](NC(=O)c1cnccn1)C(=O)N(C)[C@H](C[C@@H](OC(C)=O)c1nc(C(=O)N[C@@H](Cc2ccccc2)C[C@H](C)C(=O)OC)cs1)C(C)C | active |
| CC1OC(=O)C(C(C)C)NC(=O)C(C(C)C)OC(=O)C(C(C)C)NC(=O)C(C)OC(=O)C(C(C)C)NC(=O)C(C(C)C)OC(=O)C(C(C)C)NC(=O)C(C)OC(=O)C(C(C)C)NC(=O)C(C(C)C)OC(=O)C(C(C)C)NC1=O (stereo not drawn) | active |
| Cc1c(C)c(N)c(C)c(C)c1N | inactive |
